# inhibition at 1 µM listing for each entry below
Molecular target: PI3Kβ (Homo sapiens)
Sequence (P42338 whole entry): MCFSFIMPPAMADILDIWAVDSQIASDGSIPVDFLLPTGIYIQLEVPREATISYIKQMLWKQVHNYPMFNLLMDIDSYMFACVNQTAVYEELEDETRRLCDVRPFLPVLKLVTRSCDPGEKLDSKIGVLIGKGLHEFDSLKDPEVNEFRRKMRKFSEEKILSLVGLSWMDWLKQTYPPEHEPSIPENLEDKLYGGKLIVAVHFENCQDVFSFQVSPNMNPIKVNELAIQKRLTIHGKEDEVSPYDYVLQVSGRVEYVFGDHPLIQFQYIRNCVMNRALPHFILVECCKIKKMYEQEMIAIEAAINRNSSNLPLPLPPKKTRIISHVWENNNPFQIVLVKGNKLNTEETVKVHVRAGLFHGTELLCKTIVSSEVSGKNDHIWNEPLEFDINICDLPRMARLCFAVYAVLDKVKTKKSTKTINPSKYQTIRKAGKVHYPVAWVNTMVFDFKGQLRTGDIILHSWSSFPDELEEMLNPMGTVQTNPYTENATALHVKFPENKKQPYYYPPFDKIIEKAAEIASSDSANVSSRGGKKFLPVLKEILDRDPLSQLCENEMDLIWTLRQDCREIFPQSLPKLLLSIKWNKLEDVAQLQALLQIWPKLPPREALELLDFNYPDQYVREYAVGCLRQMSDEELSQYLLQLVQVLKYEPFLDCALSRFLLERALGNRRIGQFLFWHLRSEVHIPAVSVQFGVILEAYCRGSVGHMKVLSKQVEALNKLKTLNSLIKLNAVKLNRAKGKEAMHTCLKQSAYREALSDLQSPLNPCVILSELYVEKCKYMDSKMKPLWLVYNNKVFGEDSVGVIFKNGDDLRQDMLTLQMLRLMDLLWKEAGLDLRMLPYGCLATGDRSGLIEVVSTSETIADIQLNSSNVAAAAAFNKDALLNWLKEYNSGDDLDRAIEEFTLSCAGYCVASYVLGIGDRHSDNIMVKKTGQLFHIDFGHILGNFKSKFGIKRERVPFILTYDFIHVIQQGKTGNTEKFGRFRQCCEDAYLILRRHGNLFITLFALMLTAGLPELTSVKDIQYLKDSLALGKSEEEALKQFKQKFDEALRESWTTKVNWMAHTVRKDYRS
Sequence (P27986 whole entry partner): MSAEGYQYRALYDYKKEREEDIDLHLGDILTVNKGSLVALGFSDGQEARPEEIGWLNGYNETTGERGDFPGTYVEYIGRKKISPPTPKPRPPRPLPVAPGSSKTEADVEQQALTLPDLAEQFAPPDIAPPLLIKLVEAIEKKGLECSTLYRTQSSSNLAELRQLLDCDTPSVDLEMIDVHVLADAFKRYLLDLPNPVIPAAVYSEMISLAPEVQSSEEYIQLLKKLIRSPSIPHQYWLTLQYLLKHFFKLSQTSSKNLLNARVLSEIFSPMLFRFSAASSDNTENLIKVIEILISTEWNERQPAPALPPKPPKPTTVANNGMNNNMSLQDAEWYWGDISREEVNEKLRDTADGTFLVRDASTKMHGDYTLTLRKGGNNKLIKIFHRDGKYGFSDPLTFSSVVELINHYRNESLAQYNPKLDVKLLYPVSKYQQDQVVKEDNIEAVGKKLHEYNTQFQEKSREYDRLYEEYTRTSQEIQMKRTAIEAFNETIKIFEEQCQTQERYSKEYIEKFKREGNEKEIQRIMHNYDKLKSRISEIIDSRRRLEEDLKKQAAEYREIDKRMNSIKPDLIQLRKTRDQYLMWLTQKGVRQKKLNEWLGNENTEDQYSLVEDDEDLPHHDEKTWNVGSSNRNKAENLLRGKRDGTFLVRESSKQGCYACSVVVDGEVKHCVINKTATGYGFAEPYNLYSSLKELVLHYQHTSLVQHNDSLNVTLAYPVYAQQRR
Experiment: Fluorescent determination of PI3Kinase enzyme activity (HTRF), PI3Kβ
Type: biochemical

compound	inhibition at 1 µM
CC(C)Oc1ccc(-c2nn([C@H](C)c3nc4ccccc4c(=O)n3-c3ccccc3)c3ncnc(N)c23)cc1F	20 to 40%
COc1ccc(-c2nn([C@@H](C)c3cc4cccc(Cl)c4c(=O)n3-c3ccccc3)c3ncnc(N)c23)cc1NS(C)(=O)=O [Example 20a]	10 to 20%
CC(C)Oc1ccc(-c2nn(C(C)c3cc4ccccc4c(=O)n3-c3ccccc3)c3ncnc(N)c23)cc1F (centres unmarked)	10 to 20%
COc1ccc(-c2nn(C(C)c3cc4ccccc4c(=O)n3-c3ccccc3)c3ncnc(N)c23)cc1NS(C)(=O)=O (centres unmarked)	40 to 60%
CC(C)Oc1ccc(-c2nn([C@@H](C)c3cc4ccccc4c(=O)n3-c3ccccc3)c3ncnc(N)c23)cc1F	20 to 40%

Data provenance: patent US11352359B2
